- experiment-summary: acute toxicity in rats (LD50, therapeutic indices)
- Format: in vivo
- experimental-context: rat, in vivo; rats; oral; LD50 and ED50 in vasopressin angina; read-out: therapeutic index, oral (head is drawing 5)
attribute-measured: selectivity ratio
Numbers only.

> print(dat)
                                   compound  attribute.measured  recorded.result
1  CC(NCCC(c1ccccc1)c1ccccc1)c1ccccc1 (centres unmarked) [Fendiline, reference compound]   selectivity ratio               40

Qu. Dear colleague, I am looking for the recorded selectivity ratio of the following compound: COc1ccc(C(C)NCCC(c2ccccc2)c2ccccc2)cc1OC.Cl (centres unmarked) [KHL-8430, hydrochloride]
Ans. 167

###

Task for the reader: assign each of the following compounds its reported selectivity ratio.
- experiment-summary: acute toxicity in rats (LD50, therapeutic indices)
- Assay type: in vivo
- experimental-context: rat, in vivo, iv; rats; i.v.; LD50 and ED50 in vasopressin angina; read-out: therapeutic index, intravenous (head is drawing 4)
Answers are plain numbers.

> print(dat)
                                   compound  attribute.measured  recorded.result
1  COc1ccc(C(C)NCCC(c2ccccc2)c2ccccc2)cc1OC.Cl (centres unmarked) [KHL-8430, hydrochloride]   selectivity ratio             47.1

Moving on to the next compound.
Qu. Dear colleague, I am looking for the recorded selectivity ratio of the following compound: CC(NCCC(c1ccccc1)c1ccccc1)c1ccccc1 (centres unmarked) [Fendiline, reference compound]
Ans. 5.3
